Molecular target: Aromatase (Homo sapiens, UniProt P11511)
Sequence (P11511 whole entry): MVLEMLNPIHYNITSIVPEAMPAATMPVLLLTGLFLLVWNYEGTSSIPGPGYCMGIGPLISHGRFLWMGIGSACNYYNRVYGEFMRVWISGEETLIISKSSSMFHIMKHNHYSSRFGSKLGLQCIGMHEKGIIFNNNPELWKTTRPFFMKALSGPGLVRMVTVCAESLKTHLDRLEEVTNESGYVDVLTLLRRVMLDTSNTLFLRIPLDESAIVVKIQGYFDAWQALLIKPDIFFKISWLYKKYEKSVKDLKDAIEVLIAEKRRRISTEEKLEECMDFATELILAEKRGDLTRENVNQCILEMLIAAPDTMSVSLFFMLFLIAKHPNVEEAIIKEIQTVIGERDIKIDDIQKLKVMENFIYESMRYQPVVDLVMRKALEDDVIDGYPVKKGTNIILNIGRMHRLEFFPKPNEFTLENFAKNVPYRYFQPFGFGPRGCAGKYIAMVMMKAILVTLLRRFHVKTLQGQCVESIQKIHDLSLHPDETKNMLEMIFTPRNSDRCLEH
Assay: In vitro inhibition of cytochrome P450 19A1 from human placental microsomes with 2.5 uM [1-beta,2beta-3H]testosterone
assayReadout: pIC50
Bear in mind: pIC50 is minus log10 of a mol/L concentration; give just that figure.

Exercise: # returns recorded pIC50 (system: Aromatase (Homo sapiens, UniProt P11511)) for CCN1CCc2cccc(C(c3ccc(F)cc3)n3ccnc3)c21 (stereo unspecified)
Solution: 7.21

---

Target: UniProt:P11511
Quick rule for you: IC50 under 0.09 µM gets T, anything else gets F.

Recorded results for 3 compounds are shown here.
compound="CCN1CCc2cccc(C(c3ccc(F)cc3)n3cncn3)c21 (stereo not given)" assignedlabel=F
compound="CCn1ccc2cc(Br)cc(C(c3ccc(F)cc3)n3ccnc3)c21 (stereo not given)" assignedlabel=F
compound="CCn1ccc2cccc(C(c3ccc(Br)cc3)n3ccnc3)c21 (stereo not given)" assignedlabel=T

Please examine the following record next.
Exercise: Find out if reported IC50 for CCn1ccc2cccc(C(c3ccc(F)cc3)n3ccnc3)c21 (stereo not given) is less than 0.09 µM
Solution: T
